biological target: rat MCH-1 (Rattus norvegicus, UniProt P97639); experiment: Radioligand binding assay at cloned rat MCH1 receptor ([3H] Compound A); parameters: host or cells: Peak rapid 293 (Peakr293) cells, transient calcium phosphate transfection, membranes; details: cloned rat MCH1 receptor; 0.08 nM [3H] Compound A; Peakr293 cell membranes; read-out: Ki (nM) rMCH1
Sequence (P97639 whole entry): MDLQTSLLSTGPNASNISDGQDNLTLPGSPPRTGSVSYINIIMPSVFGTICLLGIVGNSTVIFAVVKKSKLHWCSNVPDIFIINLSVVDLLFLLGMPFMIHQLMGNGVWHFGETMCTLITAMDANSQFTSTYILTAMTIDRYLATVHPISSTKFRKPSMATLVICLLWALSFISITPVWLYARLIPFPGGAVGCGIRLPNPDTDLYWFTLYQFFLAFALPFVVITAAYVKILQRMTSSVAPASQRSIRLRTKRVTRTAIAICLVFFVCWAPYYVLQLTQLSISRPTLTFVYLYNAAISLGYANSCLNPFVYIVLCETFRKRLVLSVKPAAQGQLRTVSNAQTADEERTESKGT
reported metric: Ki (nM)

Record excerpt, results attached:
COc1ccc(CCCN2CCC(c3cccc(NC(=O)C(C)C)c3)CC2)cc1OC
299
CC(C)C(=O)Nc1cccc(C2CCN(Cc3cccc4ccn(-c5cccc(Cl)c5Cl)c34)CC2)c1
256
CC(C)C(=O)Nc1cccc(C2CCN(CCCCCC(=O)c3ccccc3)CC2)c1
42.4
O=C(Nc1cccc(C2CCN(CCCCCCSc3ccccc3)CC2)c1)C1CC1
58.3
CC(C)C(=O)Nc1cccc(C2CCN(Cc3cn(-c4cccc(C(F)(F)F)c4)c4ccccc34)CC2)c1
7.8
CCOc1ccccc1OC(CCCCN1CCC(c2cccc(NC(=O)C(C)C)c2)CC1)c1ccccc1 (centres unmarked)
62

[1] CC(C)C(=O)Nc1cccc(C2CCN(Cc3c(-c4ccccc4)n(-c4ccccc4)c4ccccc34)CC2)c1
[2] CC(C)C(=O)Nc1cccc(C2CCN(CCCNC(=O)N3C(=O)OC[C@@H]3c3cc(F)cc(F)c3)CC2)c1
Req: Of 1 and 2 , which one carries the higher reported Ki? // output: label of the selected item
Resp: 2
(2: 98.8 nM, 1: 30.4 nM)

----------
target: rat MCH-1 (Rattus norvegicus, UniProt P97639); assay: Radioligand binding assay at cloned rat MCH1 receptor ([3H] Compound A); parameters: host or cells: Peak rapid 293 (Peakr293) cells, transient calcium phosphate transfection, membranes; conditions: cloned rat MCH1 receptor; 0.08 nM [3H] Compound A; Peakr293 cell membranes; read-out: Ki (nM) rMCH1
reported metric: Ki (nM)

Reference set (4 entries):
CC(C)C(=O)Nc1cccc(C2CCN(Cc3c[nH]c4c(-c5cccc([N+](=O)[O-])c5)cccc34)CC2)c1
27
CC(C)C(=O)Nc1cccc(C2CCN(CCCc3c(-c4cccc(Cl)c4)n(-c4ccccc4)c4ccccc34)CC2)c1
152
CC(C)C(=O)Nc1cccc(C2CCN(Cc3c[nH]c4cc(OCc5ccccc5)ccc34)CC2)c1
288
CC(C)C(=O)Nc1ccc(C2CCN(CCCCCCn3ccc4ccccc43)CC2)cc1
570

[a] CC(=O)c1cccc(OC(CCCCCN2CCC(c3cccc(NC(=O)C(C)C)c3)CC2)c2ccc(Cl)cc2)c1 (stereo not shown)
[b] COc1ccc(C(=O)CCCN2CCC(c3cccc(NC(=O)C4CC4)c3)CC2)cc1
[c] CC(C)C(=O)Nc1cccc(C2CCN(CC[C@H](NC(=O)Nc3ccccc3F)c3ccccc3)CC2)c1
Req: Hello, I need these entries ordered by Ki, highest reading first. Thanks! A complete answer lists every label in the requested sequence.
Resp: c, b, a

----------
target: rat MCH-1 (Rattus norvegicus); assay: Radioligand binding assay at cloned rat MCH1 receptor ([3H] Compound A); parameters: host or cells: Peak rapid 293 (Peakr293) cells, transient calcium phosphate transfection, membranes; conditions: cloned rat MCH1 receptor; 0.08 nM [3H] Compound A; Peakr293 cell membranes; read-out: Ki (nM) rMCH1
reported metric: Ki (nM)

[1] CC(C)C(=O)Nc1cccc(C2CCN(CCCc3c(-c4cccc(Cl)c4)[nH]c4ccc(OC(F)(F)F)cc34)CC2)c1
[2] CC(C)C(=O)Nc1cccc(C2CCN(CCC[S+]([O-])c3ccc(F)cc3)CC2)c1 (stereo not shown)
[3] CCC(=O)Nc1ccc(C2CCN(CCC(c3ccccc3)c3ccccc3)CC2)cc1
Req: Given 3 compounds, produce a descending ranking by Ki. Give the labels in the order requested.
Resp: 3, 2, 1
(3: 371 nM, 2: 157 nM, 1: 9.2 nM)

----------
target: rat MCH-1 (Rattus norvegicus, UniProt P97639); assay: Radioligand binding assay at cloned rat MCH1 receptor ([3H] Compound A); parameters: host or cells: Peak rapid 293 (Peakr293) cells, transient calcium phosphate transfection, membranes; settings: cloned rat MCH1 receptor, membranes from Peakr293 cells, 0.08 nM [3H] Compound A; read-out: Ki (nM) rMCH1
reported metric: Ki (nM)

Known Ki results, listed for orientation:
CC(C)C(=O)Nc1cccc(C2CCN(CCCNC(=O)c3csc4ccccc34)CC2)c1
215
Cc1nc(-c2ccccc2)ncc1CN1CCC(c2cccc(NC(=O)C(C)C)c2)CC1
596
Cc1cccc(-n2ccc3cc(CN4CCC(c5cccc(NC(=O)C(C)C)c5)CC4)ccc32)c1
21.3
CC(=O)c1cccc(OC(CCN2CCC(c3cccc(NC(=O)C(C)C)c3)CC2)c2ccc3c(c2)CCC3)c1 (centres unmarked)
7.4
CC(C)C(=O)Nc1cccc(C2CCN(CCCOc3ccccc3F)CC2)c1
195
CC(C)C(=O)Nc1cccc(C2CCN(CCCC(c3ccc(F)cc3)c3ccc(F)cc3)CC2)n1
13.5

[P] CC(=O)c1ccccc1OC(CCN1CCC(c2cccc(NC(=O)C(C)C)c2)CC1)c1ccc(Cl)cc1 (centres unmarked)
[Q] CC(C)C(=O)Nc1cccc(C2CCN(CCC(OC(=O)c3cccc4ccccc34)c3ccccc3)CC2)c1 (stereo in doubt)
Req: Field: lower Ki | Options: P / Q Provide the label of your selected option as the answer.
Resp: P

----------
target: rat MCH-1 (Rattus norvegicus); assay: Radioligand binding assay at cloned rat MCH1 receptor ([3H] Compound A); design: host or cells: Peak rapid 293 (Peakr293) cells, transient calcium phosphate transfection, membranes; details: cloned rat MCH1 receptor; 0.08 nM [3H] Compound A; Peakr293 cell membranes; read-out: Ki (nM) rMCH1
reported metric: Ki (nM)

CC(C)C(=O)Nc1cccc(C2CCN(CCCc3c(-c4cccc(F)c4)n(C)c4ccccc34)CC2)c1
8.5
CC(C)C(=O)Nc1cccc(C2CCN(CCCc3c(-c4ccccc4Cl)n(-c4ccccc4)c4ccccc34)CC2)c1
28.6
CC(C)C(=O)Nc1cccc(C2CCN(CCCc3c(-c4ccc(Br)cc4)n(-c4ccccc4)c4ccccc34)CC2)c1
92.3
CC(C)C(=O)Nc1cccc(C2CCN(CCCCCCNC(=O)c3ccc(Oc4cc(Cl)cc(Cl)c4)o3)CC2)c1
20.9
O=C(Nc1cccc(C2CCN(Cc3cn(-c4cccc(Cl)c4)c4cc(Cl)ccc34)CC2)c1)C1CC1
8.1
CC(C)C(=O)Nc1cccc(C2CCN(CCCc3c(-c4cccc(I)c4)n(C)c4ccccc34)CC2)c1
10.2
Cc1cc(CN2CCC(c3cccc(NC(=O)C(C)C)c3)CC2)cc2c3ccccc3n(C)c12
1
CC(C)C(=O)Nc1cccc(C2CCN(CCNC(=O)c3coc(Oc4cc(Cl)cc(Cl)c4)c3)CC2)c1
13.4
Cc1cccc2c(CCCN3CCC(c4cccc(NC(=O)C(C)C)c4)CC3)c(-c3cccc(Cl)c3)[nH]c12
6.4
COc1cc2[nH]cc(CN3CCC(c4cccc(NC(=O)C(C)C)c4)CC3)c2cc1OC
107

[A] CC(C)C(=O)Nc1cccc(C2CCN(CCCCCC(Oc3ccc(F)cc3)c3ccccc3F)CC2)c1 (centres unmarked)
[B] CCC(=O)Nc1cccc(C2CCN(Cc3c[nH]c4cc(F)ccc34)CC2)c1
[C] CC(C)C(=O)Nc1cccc(C2CCN(CCCCC(=O)c3cccc(C(F)(F)F)c3)CC2)c1
Req: Output the entries ranked by Ki from maximum down to minimum. Answer format: list of labels, ordered as asked.
Resp: B, C, A
(B: 912 nM, C: 57.6 nM, A: 11.1 nM)

[1] CC(C)C(=O)Nc1cccc(C2CCN(CCCCC(Oc3cc(C(F)(F)F)ccc3F)c3cccc(F)c3)CC2)c1 (centres unmarked)
[2] CCC(=O)Nc1cccc(C2CCN(CCCCC(=O)c3ccc(F)cc3)CC2)c1
[3] Cc1ccc2[nH]c(-c3cccc(F)c3)c(CCCN3CCC(c4cccc(NC(=O)C(C)C)c4)CC3)c2c1
[4] CC(C)C(=O)Nc1cccc(C2CCN(CCCc3cn(-c4ccccc4)c4ccccc34)CC2)c1
Req: Please rank these compounds by Ki in descending order. In plain terms: list the labels in the order you were asked to.
Resp: 2, 4, 1, 3
(2: 52 nM, 4: 16.6 nM, 1: 9.4 nM, 3: 4.2 nM)

[a] CC(C)C(=O)Nc1cccc(C2CCN(CCCc3c(-c4ccc(C(F)(F)F)cc4)[nH]c4ccc(OC(F)(F)F)cc34)CC2)c1
[b] CCn1c2ccccc2c2cc(CN3CCC(c4cccc(NC(=O)C5CC5)c4)CC3)ccc21
Req: Sorting by Ki in descending order, would a or b appear first? Identify your selection by its label.
Resp: a

----------
biological target: rat MCH-1 (Rattus norvegicus, UniProt P97639); assay: Radioligand binding assay at cloned rat MCH1 receptor ([3H] Compound A); parameters: host or cells: Peak rapid 293 (Peakr293) cells, transient calcium phosphate transfection, membranes; conditions: cloned rat MCH1 receptor; 0.08 nM [3H] Compound A; Peakr293 cell membranes; read-out: Ki (nM) rMCH1
reported metric: Ki (nM)

[a] CC(C)C(=O)Nc1cccc(C2CCN(CCCCCCC(O)c3ccccc3F)CC2)c1 (centres unmarked) [Example 812]
[b] COc1ccc(S(=O)(=O)NCCCN2CCC(c3cccc(NC(=O)C(C)C)c3)CC2)cc1OC [Example 637]
[c] CC(C)C(=O)Nc1cccc(C2CCN(CCCCNC(=O)C(c3ccccc3)c3ccccc3)CC2)c1 [Example 653]
[d] CC(C)C(=O)Nc1cccc(C2CCN(CCCCC(Oc3cc(C(F)(F)F)ccc3F)c3ccccc3F)CC2)c1 (centres unmarked) [Example 931]
Req: Ascending by Ki, please: list the compounds accordingly. # answer = labels listed in requested order
Resp: d, c, b, a
